System: PC-3 prostate
run_description: NCI tumour cell line growth inhibition, 48 h
For each record, write down the corresponding TGI.

Examples with their reported TGI follow.
[
  {
    "molecule": "O=C1c2cc(Cl)ccc2-n2c(noc2=O)C2CSCN12 (stereo not drawn)",
    "test_system": "PC-3 prostate",
    "metric_name": "TGI",
    "recorded_result": "> 100 µM"
  },
  {
    "molecule": "O=C1CSC2(CC(/C=C/C=C/c3ccccc3)=NN2c2cccc(S(=O)(=O)O)c2)N1c1nc2ccccc2s1 (stereo not drawn)",
    "test_system": "PC-3 prostate",
    "metric_name": "TGI",
    "recorded_result": "> 100 µM"
  }
]

Now take the following molecule into account.
**Q:** Look up and report measured TGI for this entry: CN(C)c1ccc(/C=C(\NC(=O)c2ccccc2)C(=O)Nc2ccccc2C(=O)NN2C(=O)CSC2c2ccc(N(C)C)cc2)cc1 (stereo not drawn)
**A:** > 100 µM

###

Answer each item with its documented TGI.
Tested on: 786-0 renal
run_description: NCI tumour cell line growth inhibition, 48 h
Answers are plain numbers, in µM.

Check out these entries, answers already filled in.
[
  {
    "compound": "Cc1ccc(C2=Nc3c(N)ncnc3NC(c3cccc(Nc4ccnc5cc(C(F)(F)F)ccc45)c3)C2)cc1 (stereo not given)",
    "test_system": "786-0 renal",
    "metric_name": "TGI",
    "recorded_result": 11.2
  },
  {
    "compound": "Cc1cc(CS(=O)(=O)/C=C/c2ccccc2[N+](=O)[O-])c(CS(=O)(=O)/C=C/c2ccccc2[N+](=O)[O-])cc1C",
    "test_system": "786-0 renal",
    "metric_name": "TGI",
    "recorded_result": 34.9
  }
]

Now for a further compound.
**Q:** Supply reported TGI belonging to this compound: COc1ccc(C[C@H]2C[C@@H](O)[C@@H](C)C/C=C/Cc3cccc(O)c3C(=O)O2)cn1
**A:** 77.7

###

Field: TGI. Provide a value for each of the compounds that follow.
Tested on: MDA-MB-435
run_description: NCI tumour cell line growth inhibition, 48 h

Examples with their reported TGI follow.
[
  {
    "compound": "O=S1(=O)NNC(=NCc2ccc(F)cc2)c2ccccc21",
    "TGI": "> 100 µM"
  },
  {
    "compound": "CCOC(=O)CCC(NC(=O)OCc1ccccc1)C(=O)NNC(=O)OC(C)(C)C (centres undefined)",
    "TGI": "> 100 µM"
  },
  {
    "compound": "C=C[C@]1(C)CC[C@]2(C)C(CC[C@@]3(C)C2C[C@H](O)[C@H](O)[C@@]3(C)O)C1 (some centres undefined)",
    "TGI": "> 100 µM"
  }
]

**Q:** Report measured TGI; entry is COc1ccc(Cn2nc(OCc3ccccn3)c3cc([N+](=O)[O-])ccc32)cc1
**A:** > 100 µM

###

Would you kindly list TGI for each of these compounds?
Tested on: LXFL 529 NSCLC
run_description: NCI tumour cell line growth inhibition, 48 h

Solved cases (4 shown):
[
  {
    "compound": "COC(=O)C(CC=O)C(=O)C(=O)Nc1cccc(C(F)(F)F)c1 (stereo not given)",
    "TGI": "> 100 µM"
  },
  {
    "compound": "COc1cc2c3c(c1OC)-c1ccccc1C(C(OC(C)=O)c1ccccc1)C3N(C)CC2 (stereo not given)",
    "TGI": "> 100 µM"
  },
  {
    "compound": "Cn1c(=O)c2c3oc(=O)cc(O)c3c(=O)n3c4ccccc4n(c1=O)c23",
    "TGI": "> 100 µM"
  },
  {
    "compound": "Cc1cc(NS(=O)(=O)c2ccc(Nc3c4ccccc4nc4c(C(=O)NCCN(C)C)ccc(Cl)c34)cc2)no1",
    "TGI": "19.2 µM"
  }
]

Now turn to the next compound.
**Q:** Read the entry Cc1cc(CS(=O)(=O)/C=C/c2ccccc2[N+](=O)[O-])c(CS(=O)(=O)/C=C/c2ccccc2[N+](=O)[O-])cc1C and write its reported TGI.
**A:** > 100 µM

###

Tested on: MALME-3M melanoma
run_description: NCI tumour cell line growth inhibition, 48 h
metric_name: TGI

[
  {
    "compound": "COc1ccc2c(c1O)[C@@]13C=C(O)C(=O)C=C1[C@@H](C2)N(C)CC3",
    "TGI": "> 100 µM"
  },
  {
    "compound": "CCC1OCCN1C(C)C (centres undefined)",
    "TGI": "> 100 µM"
  },
  {
    "compound": "Oc1ccc(-c2c3c(nc4c2CCc2ccc(Br)cc2-4)-c2cc(Br)ccc2CC3)cc1",
    "TGI": "50.4 µM"
  },
  {
    "compound": "Oc1cc2cc(-c3ccccc3)[nH]c2c2ccccc12",
    "TGI": "41.6 µM"
  }
]

Batch of 7 compounds: report TGI for each.
1. O=C(Cc1nc2ccc(C(=O)c3ccccc3)cc2[nH]c1=O)C(=O)Nc1ccccc1[N+](=O)[O-]
2. O=c1c(Cc2ccc(Cl)cc2)nnc2sc(-c3ccc([N+](=O)[O-])cc3)nn12
3. O=[N+]([O-])c1ccc2nc3ccc([N+](=O)[O-])cn3c2c1
4. O=C(CCCCCCCCC(=O)OCC1OC(n2cnc3c(=O)[nH]cnc32)C(O)C1O)OCC1OC(n2cnc3c(=O)[nH]cnc32)C(O)C1O (centres undefined)
5. CCCCc1ccc2[n+](c1)C(C(=O)OCC)=PC2 (centres undefined)
6. COc1c(O)c(OC)c(C(=O)/C=C/c2ccccc2)c(O)c1OC
7. COC(=O)/C(=N\NC(=O)c1ccccc1O)C(C#N)c1ccc(Cl)cc1 (centres undefined)

**A:**
> 100 µM
55.5 µM
> 100 µM
> 100 µM
> 100 µM
> 100 µM
> 100 µM

For each of the items listed, what is its TGI?
1. CCCCCCCCCCCCOC1C(COCCN2CCCC2)OC2OC(C)(C)OC21 (centres undefined)
2. COc1cc(C2C3=C(COC3=O)N(CCO)c3cc4c(cc32)CCC4)cc(OC)c1O (centres undefined)

**A:**
3.35 µM
> 32.5 µM

**Q:** Find the measured TGI of CN1C(=O)c2cc(Cl)nc3c(NC(=O)c4cccc(Cl)c4)c(Cl)c(NC(=O)c4cccc(Cl)c4)c1c23 and report it.
**A:** 3.44 µM

###

Kindly state TGI for each of the entries shown.
Tested on: K-562 leukemia
run_description: NCI tumour cell line growth inhibition, 48 h

[
  {
    "compound": "CC(C)=CCN(N=O)c1ncnc2nc[nH]c12",
    "TGI": "> 100 µM"
  },
  {
    "compound": "O=C(CCCCCCCCCCc1ccccc1)c1c(O)cccc1O",
    "TGI": "58.7 µM"
  },
  {
    "compound": "CC(=O)[CH-]C(=O)c1ccccc1.CC(=O)[CH-]C(=O)c1ccccc1.[O]=[U+2]=[O]",
    "TGI": "> 100 µM"
  },
  {
    "compound": "Oc1cc2cc(-c3ccccc3)[nH]c2c2ccccc12",
    "TGI": "> 88.8 µM"
  },
  {
    "compound": "COc1cn2c(cc1=O)COc1ccc(-c3ccccc3)cc1-2",
    "TGI": "> 100 µM"
  },
  {
    "compound": "Oc1cccc(-c2nc3ccccc3s2)c1",
    "TGI": "> 100 µM"
  }
]

I'm hoping you can list TGI for every compound here, please.
1. COc1cc(N=Nc2cccc(S(=O)(=O)O)c2)c(C)cc1N=Nc1ccc(/C=C/c2ccc(N=[N+]([O-])c3ccc(/C=C/c4ccc(N=Nc5cc(C)c(N=Nc6cccc(S(=O)(=O)O)c6)cc5OC)cc4)c(S(=O)(=O)O)c3)cc2S(=O)(=O)O)cc1
2. NC(Cc1nn[nH]n1)C(=O)O (stereo unspecified)

**A:**
1. > 100 µM
2. > 100 µM

Provide reported TGI for each item, in the same order as listed.
1. O=C(c1ccccc1F)c1c(NCc2ccccc2)c(=O)c1=O
2. Cc1cc(NS(=O)(=O)c2ccc(Nc3c4ccccc4nc4c(C(=O)NCCN(C)C)ccc(Cl)c34)cc2)no1
3. O=C(O)c1cc(Cl)cc(NC(=O)C(Cl)Cl)c1Cl

**A:**
1. > 100 µM
2. 21.2 µM
3. > 100 µM

Dear reader, for each entry below, please note its TGI.
1. CO[C@H]1C=C[C@]23c4cc5c(cc4CN(CC2O)[C@@H]3C1)OCO5 (stereo partly specified)
2. Cc1ccc(S(=O)(=O)C(C#N)c2nc3ccccc3nc2-n2cccn2)cc1 (stereo unspecified)
3. Cc1c(C(C)C)cc(OCCO)cc1C(C)C
4. O=C1CCC2(CCC(=O)NC2=O)C(=O)N1
5. O=C1c2cc(Cl)ccc2-n2c(noc2=O)C2CSCN12 (stereo unspecified)
6. COc1ccccc1C1C(C#N)=C(N)OC2=C1C(=O)CCC2 (stereo unspecified)
7. CC(C)OP(=O)(OC(C)C)C(N(C)C)P(=O)(OC(C)C)OC(C)C.[Cl][Sn]([Cl])([Cl])[c]1ccccc1
8. CC(C)(C)n1cc(-c2ccnc(NCCNS(=O)(=O)c3ccc(Br)cc3)c2)c(-c2cccc(O)c2)n1

**A:**
["> 100 µM", "> 100 µM", "> 100 µM", "> 100 µM", "> 100 µM", "> 100 µM", "5.62 µM", "2.85 µM"]

Required: TGI, one value per compound below.
1. CCCCCCCCCCCCOC1C(COCCN2CCCC2)OC2OC(C)(C)OC21 (stereo unspecified)
2. COc1cc[nH]c1/C=C1\C(=O)Nc2ccc(F)c(C#CC3(O)CCOCC3)c21
3. CC(C)(CN1CCCCC1)C(=O)CC(SCCS(=O)(=O)O)c1ccc(Br)cc1 (stereo unspecified)
4. COc1cc2oc3ccccc3c(=O)c2cc1CSc1ccccc1N
5. CC(C)=CC(=O)O[C@@H]1CC(C)(C)CC2C3=CCC4[C@]56CC[C@](O)(OC5)C(C)(C)C6CC[C@@]4(C)C3(C)CC[C@]21C(=O)O (stereo partly specified)
6. C/C(=N\N=C(N)N)c1c(C(=O)OCCCCCCOC(=O)c2nc3sccn3c2/C(C)=N/N=C(N)N)nc2sccn12
7. CCOc1ccc(NC(=O)c2c(N/N=C/c3ccc(OC)cc3)nc(=O)[nH]c2C)cc1

**A:**
2.7 µM
> 25 µM
8.63 µM
> 100 µM
> 100 µM
50.1 µM
> 100 µM
